All figures here come from patent US7858658B2.

- Measurement Description: Phase 1 and 2 rat liver microsome metabolism
- Assay type: in vitro ADME
- Experimental Setup: liver microsomes, read-out: half-life (metabolic stability)
Attribute Measured: half-life (min)
All answers are understood in min, so give the number only.

q: Specify half-life for C[C@H](CC(F)(F)F)[C@@H](CO)NS(=O)(=O)c1ccc(Cl)s1 and stop.
a: 14

###

- Measurement Description: Phase 1 and 2 human liver microsome metabolism
- Type: in vitro ADME
- Experimental Setup: liver microsomes, read-out: half-life (metabolic stability)
Attribute Measured: half-life

q: Specify half-life for C[C@H](CC(F)(F)F)[C@@H](CO)NS(=O)(=O)c1ccc(Cl)s1 and stop.
a: 22 min

###

- Measurement Description: Phase 1 and 2 mouse liver microsome metabolism
- Type: in vitro ADME
- Experimental Setup: liver microsomes, read-out: half-life (metabolic stability)
Attribute Measured: half-life (min)
All answers are understood in min, so give the number only.

q: Specify half-life for C[C@H](CC(F)(F)F)[C@@H](CO)NS(=O)(=O)c1ccc(Cl)s1 [Example 1] and stop.
a: 10

###

- Test system: amyloid precursor protein (APP) proteolysis
- Measurement Description: Repressor Release Assay (RRA)
- Assay type: cell-based
- Experimental Setup: all compounds tested at 20 μg/mL
- Procedure: The beta amyloid inhibitory activity of many of the compounds of the present invention has been determined using the Repressor Release Assay (RRA). See, Table 5 below. […] Luciferase assays (the LucLite® reagent, Packard) are performed and are read on a Packard TopCount® instrument. […] Luciferase readings are then taken on the TopCount® instrument. Measurements are expressed as relative light units (RLU) and are calculated and analyzed in the MS Excel® program as follows. […]
Provide the recorded RRA data: fold increase of APPI (luciferase activity over diluent control) for the entries that follow.
All answers are understood in fold increase, so give the number only.

q: Specify RRA data: fold increase of APPI (luciferase activity over diluent control) for O=S(=O)(NC(CO)C(C(F)(F)F)C(F)(F)F)c1ccc(Cl)s1 (stereo not drawn) and stop.
a: 3.7

q: Specify RRA data: fold increase of APPI (luciferase activity over diluent control) for Cc1nn(C)c(Cl)c1S(=O)(=O)N[C@H](CO)[C@H](CC(F)(F)F)c1ccccc1 and stop.
a: 1.6

q: Specify RRA data: fold increase of APPI (luciferase activity over diluent control) for O=S(=O)(N[C@H](CO)C(C(F)(F)F)C(F)(F)F)c1ccc(Cl)s1 and stop.
a: 3.8

q: Specify RRA data: fold increase of APPI (luciferase activity over diluent control) for CC[C@@H](CC(F)(F)F)[C@@H](CO)NS(=O)(=O)c1sc2ccc(Cl)cc2c1C and stop.
a: 4.2

q: Specify RRA data: fold increase of APPI (luciferase activity over diluent control) for CC[C@H](CC(F)(F)F)[C@H](NS(=O)(=O)c1ccc(Cl)s1)C(C)O (stereo partly drawn) and stop.
a: 4.3

###

- Measurement Description: Phase 1 and 2 dog liver microsome metabolism
- Format: in vitro ADME
- Experimental Setup: liver microsomes, read-out: half-life (metabolic stability)
Attribute Measured: half-life
Record the result as number plus unit.

q: Specify half-life for C[C@H](CC(F)(F)F)[C@@H](CO)NS(=O)(=O)c1ccc(Cl)s1 and stop.
a: 31 min
